- Tested on: Streptococcus pneumoniae (ATCC6305)
- Assay Info: Microtitre plate IC90 determination against non-mycobacterial strains: S. pneumoniae
- Format: cell-based
- Experimental Conditions: 90% inhibitory concentration for bacterial growth; 24 hours, 37° C., resazurin fluorescence
Assay Endpoint: IC90 SPN 1 6305 (mg/L)
Answers are plain numbers, in mg/L.

>>> recorded_measurement("COc1nc2ccc(Br)cc2cc1C(c1ccccc1)C(O)(CCCCN1CCN(C2CCN(Cc3ccccc3)C2)CC1)c1ccc2ccccc2c1 (single isomer, unassigned) [Compound 32]")
2.5
>>> recorded_measurement("COc1nc2ccc(Br)cc2cc1C(c1ccccc1)C(O)(CCCCN1CCC(N2CCCCC2)CC1)CCc1ccccc1 (single isomer, unassigned) [Compound 10]")
2.2

In the following, a different compound is considered.
In: Quick one: IC90 SPN 1 6305 of COc1nc2ccc(Br)cc2cc1C(c1ccccc1)C(O)(CCCCN1CCC(N2CCCCC2)CC1)c1ccc2ccccc2c1 (single isomer, unassigned) [Compound 29] ?
Out: 0.8

###

- Test system: Streptococcus pneumoniae (ATCC6305)
- Assay Info: Microtitre plate IC90 determination against non-mycobacterial strains: S. pneumoniae
- Format: cell-based
- Experimental Conditions: 90% inhibitory concentration for bacterial growth; 24 hours, 37° C., resazurin fluorescence
Give measured IC90 SPN 1 6305 for each item. Keep answers brief.
Give bare numbers, in µg/mL.

Completed entries (count: 2):
>>> recorded_measurement("COc1nc2ccc(Br)cc2cc1C(c1ccccc1)C(O)(CCCCN1CCC(N2CCCCC2)CC1)c1ccc2ccccc2c1 (single isomer, unassigned) [Compound 28]")
2.8
>>> recorded_measurement("COc1nc2ccc(Br)cc2cc1C(c1ccccc1)C(O)(CCCCN1CC2CC1CN2Cc1ccccc1)c1ccccc1 (single isomer, unassigned)")
0.3

Would you kindly look at the next entry?
In: Tell me the measured IC90 SPN 1 6305 of COc1nc2ccccc2cc1C(c1ccccc1)C(O)(CCCCN1CC2CC1CN2)c1ccc2ccccc2c1 (single isomer, unassigned) , please.
Out: 2.2

###

Record form. Attribute: IC90 SPN 1 6305. Fill in for each entry.
- Tested on: Streptococcus pneumoniae (ATCC6305)
- Assay Info: Microtitre plate IC90 determination against non-mycobacterial strains: S. pneumoniae
- Format: cell-based
- Experimental Conditions: 90% inhibitory concentration for bacterial growth; 24 hours, 37° C., resazurin fluorescence
Give bare numbers, in µg/mL.

These recorded examples may help you get a feel for the data.
>>> recorded_measurement("COc1nc2ccc(Br)cc2cc1C(c1ccccc1)C(O)(CCCCN1CCCN(C)CC1)c1ccc2ccccc2c1 (stereo not drawn) [Compound 34d]")
0.4
>>> recorded_measurement("COc1nc2ccc(Br)cc2cc1C(c1ccccc1)C(O)(CCCCCN1CCCN(C)CC1)c1ccc2ccccc2c1 (single isomer, unassigned) [Compound 54]")
2.1
>>> recorded_measurement("COc1nc2ccc(Br)cc2cc1C(c1ccccc1)C(O)(CCCCN1CC2CC1CN2Cc1ccccc1)CCCc1ccccc1 (single isomer, unassigned) [Compound 15]")
2.6
>>> recorded_measurement("COc1nc2ccc(Br)cc2cc1C(c1ccccc1)C(O)(CCCCN1CC2CC1CN2Cc1ccccc1)CCc1ccccc1 (single isomer, unassigned) [Compound 13]")
2.5
>>> recorded_measurement("COc1nc2ccc(Br)cc2cc1C(c1ccccc1)C(O)(CCCCN1CC2CC1CN2CCc1ccccc1)c1ccc2ccccc2c1 (single isomer, unassigned) [Compound 24]")
2.1

In: Reported IC90 SPN 1 6305, molecule COc1nc2ccc(Br)cc2cc1C(c1ccccc1)C(O)(CCCCN1CC2CC1CN2Cc1ccccc1)c1ccc2ccccc2c1 (stereo not drawn) [Compound 23] : ____
Out: 0.2
